Molecular target: CDK2/CycE1 (Homo sapiens, UniProt P24941)
Test: Kinase profiling
Format: biochemical
observation.type: pIC50
Keep it numeric: pIC50 is minus log10 of the concentration in mol/L.

Name the recorded pIC50 for O=c1ccc2cnc(Nc3ccc(N4CCC(CCCO)CC4)cc3)nc2n1C1CC2CCC1C2 (stereo not shown) [PD-0183812, reference compound] . 6.91

###

Experiment: Metabolic stability in hepatocytes
Assay type: in vitro ADME
Conditions: human, 60-90 min test, read-out: Metabolic stability, Human hepatocytes: t1/2
observation.type: half-life (min)
Entry rule: numbers only, all in min.

Could you share which half-life value was measured for CC(=O)c1c(C)c2cnc(Nc3ccc(N4CCC(CCCO)CC4)cc3)nc2n(C2CCCC2)c1=O ? 33.3

Item CC(O)COC1CCN(c2ccc(Nc3ncc4ccc(=O)n([C@@H]5CC6CCC5C6)c4n3)cc2)CC1 (stereo partly shown) has what recorded half-life? 28.3

###

For each record, write down the corresponding IC50.
Molecular target: CDK1/CycE1 (Homo sapiens, UniProt P06493)
Sequence (P06493 whole entry): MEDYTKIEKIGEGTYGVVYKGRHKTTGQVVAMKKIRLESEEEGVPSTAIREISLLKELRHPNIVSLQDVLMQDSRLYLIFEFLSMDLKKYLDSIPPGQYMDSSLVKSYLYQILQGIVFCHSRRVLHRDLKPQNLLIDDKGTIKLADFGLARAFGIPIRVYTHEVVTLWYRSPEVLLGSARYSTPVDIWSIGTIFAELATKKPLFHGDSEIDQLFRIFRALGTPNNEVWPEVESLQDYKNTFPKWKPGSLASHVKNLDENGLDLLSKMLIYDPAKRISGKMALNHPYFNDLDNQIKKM
Sequence (P24864 whole entry partner): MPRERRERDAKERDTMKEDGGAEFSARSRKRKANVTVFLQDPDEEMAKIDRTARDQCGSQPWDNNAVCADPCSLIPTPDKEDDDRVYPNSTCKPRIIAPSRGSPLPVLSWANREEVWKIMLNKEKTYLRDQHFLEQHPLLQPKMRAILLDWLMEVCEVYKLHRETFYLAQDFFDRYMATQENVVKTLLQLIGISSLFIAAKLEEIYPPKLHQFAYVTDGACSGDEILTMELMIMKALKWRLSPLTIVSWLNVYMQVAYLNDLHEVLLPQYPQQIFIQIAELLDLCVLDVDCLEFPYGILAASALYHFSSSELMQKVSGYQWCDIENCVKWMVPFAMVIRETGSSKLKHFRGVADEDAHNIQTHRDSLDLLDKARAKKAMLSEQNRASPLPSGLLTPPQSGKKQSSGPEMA
Assay: Kinase profiling
Type: biochemical
Conditions: 10 semi-logarithmic dilutions from 50 μM, singlicate
Give the number; nM is assumed, so skip it.

Given CC(O)CCC1CCN(c2ccc(Nc3ncc4ccc(=O)n([C@@H]5CC6CCC5C6)c4n3)cc2)CC1 (stereo partly drawn) , state its recorded IC50. 3320

Query: IC50; subject: CC(O)COC1CCN(c2ccc(Nc3ncc4ccc(=O)n([C@@H]5CC6CCC5C6)c4n3)cc2)CC1 (stereo partly drawn) 1210

// returns reported IC50 for input CC(O)CCN1CCN(c2ccc(Nc3ncc4ccc(=O)n([C@@H]5CC6CCC5C6)c4n3)cc2)CC1 (stereo partly drawn) 173

GET /values?readout=IC50&item= CC(=O)c1c(C)c2cnc(Nc3ccc(N4CCC(CCCO)CC4)cc3)nc2n(C2CCCC2)c1=O 19700

Given the compound CC(=O)c1c(C)c2cnc(Nc3ccc(N4CCNCC4)cc3)nc2n([C@@H]2CC3CCC2C3)c1=O (stereo partly drawn) , what is its reported IC50? 1440

# input compound: CC(=O)c1c(C)c2cnc(Nc3ccc(N4CCC(CCCO)CC4)cc3)nc2n([C@@H]2CC3CCC2C3)c1=O (stereo partly drawn) ; wanted: its IC50 3040

###

Biological target: CDK8/CycC (Homo sapiens, UniProt P49336)
Sequence (P49336 whole entry): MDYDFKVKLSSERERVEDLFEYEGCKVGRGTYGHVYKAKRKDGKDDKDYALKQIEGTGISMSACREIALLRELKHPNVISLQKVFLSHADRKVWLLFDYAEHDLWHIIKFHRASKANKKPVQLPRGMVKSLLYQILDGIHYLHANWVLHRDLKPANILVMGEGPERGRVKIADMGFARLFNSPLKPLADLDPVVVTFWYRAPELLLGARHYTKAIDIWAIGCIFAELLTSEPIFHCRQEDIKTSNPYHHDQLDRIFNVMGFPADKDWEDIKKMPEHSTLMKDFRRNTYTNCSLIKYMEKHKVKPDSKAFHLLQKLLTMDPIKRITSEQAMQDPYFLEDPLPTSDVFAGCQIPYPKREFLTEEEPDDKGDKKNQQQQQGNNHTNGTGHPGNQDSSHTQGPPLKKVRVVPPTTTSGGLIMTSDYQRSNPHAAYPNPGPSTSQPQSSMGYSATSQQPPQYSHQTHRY
Sequence (P24863 whole entry partner): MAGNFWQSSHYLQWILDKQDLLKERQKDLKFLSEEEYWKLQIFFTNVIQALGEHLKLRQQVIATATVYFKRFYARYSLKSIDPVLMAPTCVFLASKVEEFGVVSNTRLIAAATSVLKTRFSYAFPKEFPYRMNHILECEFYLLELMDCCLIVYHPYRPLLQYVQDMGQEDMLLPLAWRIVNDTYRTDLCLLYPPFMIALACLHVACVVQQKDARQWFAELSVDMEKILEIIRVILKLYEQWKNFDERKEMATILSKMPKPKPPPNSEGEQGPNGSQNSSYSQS
Assay: Kinase profiling
Conditions: 10 semi-logarithmic dilutions from 50 μM, singlicate
observation.type: IC50 (µM)
Reply with just the number (in µM).

Which IC50 value is on record for O=c1ccc2cnc(Nc3ccc(N4CCC(CCCO)CC4)c(F)c3)nc2n1[C@@H]1CC2CCC1C2 (some centres unmarked) ? 0.677

Data request, read-out IC50, for O=c1ccc2cnc(Nc3ccc(N4CCC(CCCO)CC4)cc3)nc2n1C1CC2CCC1C2 (centres unmarked) [PD-0183812, reference compound] 0.256

Need IC50 of O=c1ccc2cnc(Nc3ccc(N4CCNCC4)cc3)nc2n1[C@@H]1CC2CCC1C2 (some centres unmarked) , thanks. 0.307

Quick check: IC50 of CC(=O)c1c(C)c2cnc(Nc3ccc(N4CCNCC4)cc3)nc2n([C@@H]2CC3CCC2C3)c1=O (some centres unmarked) ? 16.8

Param item = CC(=O)c1c(C)c2cnc(Nc3ccc(N4CCC(CCCO)CC4)cc3)nc2n([C@@H]2CC3CCC2C3)c1=O (some centres unmarked) ; retrieve measured IC50. 27.3

Which IC50 reading was recorded for the molecule CC(O)CCN1CCN(c2ccc(Nc3ncc4ccc(=O)n([C@@H]5CC6CCC5C6)c4n3)cc2)CC1 (some centres unmarked) ? 0.0171

Return reported IC50; argument: CC(O)CCC1CCN(c2ccc(Nc3ncc4ccc(=O)n([C@@H]5CC6CCC5C6)c4n3)cc2)CC1 (some centres unmarked) 0.162
